Numbers sourced from the NIST ThermoML archive (doi:10.1021/je0301794).

The following molecules are listed with their measured mass density values.
PARTICULARS: 313.15 K; 101.3 kPa; Liquid

{"MOLECULE": "CCCCCCCCCC [decane]", "mass density [kg/m3]": 714.7}
{"MOLECULE": "CCCCCCCCC [nonane]", "mass density [kg/m3]": 702.2}
{"MOLECULE": "CCCCCCCC [octane]", "mass density [kg/m3]": 686.3}
{"MOLECULE": "CCCCCC [hexane]", "mass density [kg/m3]": 641.1}
{"MOLECULE": "COC(=O)OC [dimethyl carbonate]", "mass density [kg/m3]": 1043.4}
{"MOLECULE": "CCCCCCC [heptane]", "mass density [kg/m3]": 666.6}

###

PARTICULARS: 298.15 K; 101.3 kPa; Liquid
Threshold check on mass density: at or above 700 kg/m3 gives label 1, strictly below gives label 0.

{"COMPOUND": "CCCCCCCCCC", "LABEL VALUE": "label 1"}
{"COMPOUND": "COC(=O)OC [dimethyl carbonate]", "LABEL VALUE": "label 1"}
{"COMPOUND": "CCCCCC", "LABEL VALUE": "label 0"}

###

The following compounds are listed with their measured mass density values.
PARTICULARS: 318.15 K; 101.3 kPa; Liquid
READOUT: mass density (kg/m3)

{"COMPOUND": "CCCCCC [hexane]", "READOUT": "mass density", "EXPERIMENTAL VALUE": 636.4}
{"COMPOUND": "CCCCCCCCC [nonane]", "READOUT": "mass density", "EXPERIMENTAL VALUE": 698.1}
{"COMPOUND": "COC(=O)OC [dimethyl carbonate]", "READOUT": "mass density", "EXPERIMENTAL VALUE": 1036.9}
{"COMPOUND": "CCCCCCCCCC [decane]", "READOUT": "mass density", "EXPERIMENTAL VALUE": 710.9}
{"COMPOUND": "CCCCCCCC [octane]", "READOUT": "mass density", "EXPERIMENTAL VALUE": 682.1}
{"COMPOUND": "CCCCCCC [heptane]", "READOUT": "mass density", "EXPERIMENTAL VALUE": 661.5}

###

PARTICULARS: 303.15 K; 101.3 kPa; Liquid
READOUT: mass density (kg/m3)

{"SMILES STRING": "CCCCCC", "READOUT": "mass density", "UNITS TEXT": "kg/m3", "EXPERIMENTAL VALUE": 650.4}
{"SMILES STRING": "CCCCCCCCCC", "READOUT": "mass density", "UNITS TEXT": "kg/m3", "EXPERIMENTAL VALUE": 722.3}
{"SMILES STRING": "CCCCCCC", "READOUT": "mass density", "UNITS TEXT": "kg/m3", "EXPERIMENTAL VALUE": 675.3}
{"SMILES STRING": "CCCCCCCC", "READOUT": "mass density", "UNITS TEXT": "kg/m3", "EXPERIMENTAL VALUE": 694.5}
{"SMILES STRING": "CCCCCCCCC", "READOUT": "mass density", "UNITS TEXT": "kg/m3", "EXPERIMENTAL VALUE": 710.1}

###

The following compounds are listed with their measured Normal boiling temperature values.
PARTICULARS: Liquid; Closed cell (Static) method
Numbers after ± are expanded uncertainties.

{"COMPOUND": "CCCCCCCCC [nonane]", "Normal boiling temperature": "150.51 ± 0.2 °C"}
{"COMPOUND": "CCCCCCCC [octane]", "Normal boiling temperature": "125.50 ± 0.2 °C"}
{"COMPOUND": "CCCCCCCCCC [decane]", "Normal boiling temperature": "173.8 ± 0.2 °C"}
{"COMPOUND": "CCCCCCC [heptane]", "Normal boiling temperature": "98.03 ± 0.2 °C"}
{"COMPOUND": "CCCCCC [hexane]", "Normal boiling temperature": "68.78 ± 0.2 °C"}
{"COMPOUND": "COC(=O)OC [dimethyl carbonate]", "Normal boiling temperature": "90.31 ± 0.2 °C"}

###

The following compounds are listed with their measured mass density values.
PARTICULARS: 298.15 K; 101.3 kPa; Liquid
READOUT: mass density (kg/m3)

{"SMILES STRING": "CCCCCCC", "READOUT": "mass density", "UNITS TEXT": "kg/m3", "EXPERIMENTAL VALUE": 679.4}
{"SMILES STRING": "CCCCCCCCC", "READOUT": "mass density", "UNITS TEXT": "kg/m3", "EXPERIMENTAL VALUE": 713.9}
{"SMILES STRING": "CCCCCCCC", "READOUT": "mass density", "UNITS TEXT": "kg/m3", "EXPERIMENTAL VALUE": 698.5}
